test: NCI Yeast Anticancer Drug Screen. Data for the mec2-1 strain (AID 157); conditions: S. cerevisiae mec2-1 strain, at 50.0 µM, stronger effect = higher value
Compounds without any hit were thinned out: in the full panel of roughly 79,000, 15% have a hit.
# growth inhibition per record follows

| COMPOUND | UNIT SPEC | growth inhibition |
| --- | --- | --- |
| Cc1c(Cl)c(=O)oc2cc(OCC(O)COC(C)C)ccc12 (centres undefined) | % | -30.9 |
| Nc1ccn([C@@H]2C=C(CO)[C@@H](O)[C@H]2O)c(=O)n1 | % | -20.6 |
| Cc1cn(CCCCCCCCCCCCOc2c3occc3cc3ccc(=O)oc23)c(=O)[nH]c1=O | % | 4.6 |
| O=C(O)COc1ccc2ccccc2c1 (tested in a mixture with another compound) | % | -19.9 |
| Cc1ccc(NC(=O)c2ccc(Cl)cc2)cc1Cl | % | 1.35 |
| COc1ccc(CCN2C(CC(=O)c3ccccc3)CCCC2CC(=O)c2ccccc2)cc1 (centres undefined) | % | -29.1 |
| CCC(/C=C\C(C)C1CCC2C3CC=C4CC(OS(=O)(=O)c5ccc(C)cc5)CCC4(C)C3CCC12C)C(C)C (centres undefined) | % | -3.95 |
| C/C(=N\[N+](C)(C)C)c1ccc(C)c(C)c1 | % | -38 |
| O=C(O)c1cccc2c1C(=O)c1c(O)cccc1C2=O | % | 19.9 |
| CC1CCN(C(=O)Nc2ccccc2)CC1 | % | -17.2 |
| CC(=O)OCC(OC(C)=O)C(OC(C)=O)C(/C=C/N=[N+]([O-])c1ccccc1)OC(C)=O (centres undefined) | % | 31.5 |
| CC(=O)OCC1OC(n2nc(/C=C/c3ccccc3)c(=O)n(-c3ccccc3)c2=S)C(OC(C)=O)C(OC(C)=O)C1OC(C)=O (centres undefined) | % | 20.6 |
| CCOC(=O)Nc1cc2c(c(N)n1)N=C(CN(C)c1ccccc1)CN2 | % | 6.15 |
| CC(C)Nc1nc(N)nc2nc(-c3ccc(Cl)cc3)c(-c3ccc(Cl)cc3)nc12 | % | -2.5 |

----------
# growth inhibition per record follows
assay: NCI Yeast Anticancer Drug Screen. Data for the sgs1 mgt1 strain (AID 161);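 further: 0% = growth of cultures given vehicle only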; settings: S. cerevisiae sgs1 mgt1 strain, at 50.0 µM, stronger effect = higher value
This is part of a sample that, as a whole, favours compounds with a hit. Of some 79,000 tested, about 15% had one in any assay. The source made the active and inactive calls. Cut-off read from the data, not from the text of the source: active = growth inhibition above about 70%; inactive = the rest. Where a SMILES comes first, the peptide text is derived from it.
METRIC NAME: growth inhibition

| COMPOUND | VALUE MEASURED |
| --- | --- |
| COc1cccc(C)c1C(O)CC1CCCN1 (configuration not stated) | 7.2% (inactive) |
| COc1ccc(O)c(/C=N\N=C\c2cc(OC)ccc2O)c1 | -2.3% (inactive) |
| COC(=O)C(=O)c1c(C(=O)OC)nc2nnc(N)n2c1-c1ccc(Cl)c(Cl)c1 | -4.9% (inactive) |
| CN(C)/C=N\c1ncnc2c1ccn2C1OC(CO)C(O)C1O (configuration not stated) | -10.3% (inactive) |
| CN1C(C(=O)O)CCC1C(=O)O (configuration not stated) | 6.55% (inactive) |
| O=C1c2cc(Cl)ccc2-c2c(Cl)cccc21 | -10.9% (inactive) |
| CCCCCCCCCCCCOP(=O)(O)OP(=O)(O)OCC1OC(n2ccc(N)nc2=O)CC1O (configuration not stated) | 27.6% (inactive) |
| C=CCOC(=O)CCCCC(=O)OCC=C | 3.65% (inactive) |
| NCCCCC(NC(=O)C(N)Cc1cnc[nH]1)C(=O)O (stereo not drawn) (H-His-Lys-OH; configuration not given here) | -4% (inactive) |
| CCCNC(=O)Cn1c(C)cc2ccccc21 | 26.2% (inactive) |
| CCCCCCCCCCCCC(N)C(=O)O (configuration not stated) | 28% (inactive) |
| CC(I)CNC1=NCC(=O)N1 (configuration not stated) | -9.9% (inactive) |
